- assayed_system: T1, IL10Rα/IL2Rγ receptor (human, UniProt Q13651 22-578; P31785 23-369)
- T1 sequence (looked up) 1: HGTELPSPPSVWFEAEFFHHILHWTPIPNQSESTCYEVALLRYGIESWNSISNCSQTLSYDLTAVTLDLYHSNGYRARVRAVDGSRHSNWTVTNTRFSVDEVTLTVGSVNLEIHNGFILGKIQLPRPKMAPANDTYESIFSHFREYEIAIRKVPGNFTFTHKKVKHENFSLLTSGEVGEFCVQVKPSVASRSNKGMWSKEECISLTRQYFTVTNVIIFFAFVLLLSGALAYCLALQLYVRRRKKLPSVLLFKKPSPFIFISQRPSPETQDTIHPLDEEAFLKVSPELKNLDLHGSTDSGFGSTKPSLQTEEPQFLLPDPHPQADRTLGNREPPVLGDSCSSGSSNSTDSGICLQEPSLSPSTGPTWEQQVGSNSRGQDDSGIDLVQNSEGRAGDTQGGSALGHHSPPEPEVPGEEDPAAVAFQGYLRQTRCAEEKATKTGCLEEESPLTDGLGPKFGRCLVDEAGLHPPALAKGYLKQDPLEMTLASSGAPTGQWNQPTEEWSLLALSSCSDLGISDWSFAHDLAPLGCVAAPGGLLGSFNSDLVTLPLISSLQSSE
- T1 sequence (looked up) 2: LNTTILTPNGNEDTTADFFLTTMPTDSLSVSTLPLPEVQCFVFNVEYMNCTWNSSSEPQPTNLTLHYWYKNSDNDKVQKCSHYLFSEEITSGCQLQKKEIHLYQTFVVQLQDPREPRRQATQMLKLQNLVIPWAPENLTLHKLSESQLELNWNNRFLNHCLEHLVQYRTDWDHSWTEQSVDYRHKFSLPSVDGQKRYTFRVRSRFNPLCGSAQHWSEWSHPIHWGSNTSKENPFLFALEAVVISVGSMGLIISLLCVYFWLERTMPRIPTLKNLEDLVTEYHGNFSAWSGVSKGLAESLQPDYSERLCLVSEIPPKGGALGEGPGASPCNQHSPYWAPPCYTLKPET
- test: cell-based or functional assay
reported_property: pSTAT3 MFI, CD8+ T cells, 100 nM (unstimulated 1288)
Dear colleague, please send the value followed by its unit.

binder	result
DR466(DR240-DR232) (bispecific antibody) QVQLQESGGGSVQAGGSLRLSCGASGYTYSSYCMGWFRQVPGKEREGVAVIDSDGSTSYADSVKGRFTISKDNGKNTLYLQMNSLKPEDTAMYYCAADLGHYRPPCGVLYLGMDYWGKGTQVTVSSGGGSQVQLQESGGGSVQAGGSLRLSCVASGYTSCMGWFRQAPGKEREAVATIYTRGRSIYYADSVKGRFTISQDNAKNTLYLQMNSLKPEDIAMYSCAAGGYSWSAGCEFNYWGQGTQVTVSSASHHHHHH	2310 MFI

I have this binder here, DR442(DR236-DR232) (bispecific antibody) QVQLQESGGGSVQAGGSLRLSCAASRFTYSSYCMGWFRQAPGKEREGVASIDSDGSTSYTDSVKGRFTISKDNAKNTLYLQMNSLKPEDTAMYYCALDLMSTVVPGFCGFLLSAGMDYWGKGTQVTVSSGGGSQVQLQESGGGSVQAGGSLRLSCVASGYTSCMGWFRQAPGKEREAVATIYTRGRSIYYADSVKGRFTISQDNAKNTLYLQMNSLKPEDIAMYSCAAGGYSWSAGCEFNYWGQGTQVTVSSASHHHHHH , and I need its recorded pSTAT3 MFI, CD8+ T cells, 100 nM (unstimulated 1288). 2100 MFI

I have this binder here, DR465(DR240-DR231) (bispecific antibody) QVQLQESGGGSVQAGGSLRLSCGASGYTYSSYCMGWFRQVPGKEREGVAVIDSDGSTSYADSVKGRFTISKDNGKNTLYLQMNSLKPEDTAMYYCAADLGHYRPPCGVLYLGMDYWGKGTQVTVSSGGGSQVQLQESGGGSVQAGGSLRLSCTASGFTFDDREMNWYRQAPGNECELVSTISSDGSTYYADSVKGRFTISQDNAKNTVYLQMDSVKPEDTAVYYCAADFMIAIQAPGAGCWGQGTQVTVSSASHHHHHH , and I need its recorded pSTAT3 MFI, CD8+ T cells, 100 nM (unstimulated 1288). 4510 MFI

I have this binder here, DR468(DR240-DR234) (bispecific antibody) QVQLQESGGGSVQAGGSLRLSCGASGYTYSSYCMGWFRQVPGKEREGVAVIDSDGSTSYADSVKGRFTISKDNGKNTLYLQMNSLKPEDTAMYYCAADLGHYRPPCGVLYLGMDYWGKGTQVTVSSGGGSQVQLQESGGGSVQAGGSLRLSCVASGYTFSSYCMGWFRQAPGKEREGVAALGGGSTYYADSVKGRFTISQDNAKNTLYLQMNSLKPEDTAMYYCAAAWVACLEFGGSWYDLARYKHWGQGTQVTVSSASHHHHHH , and I need its recorded pSTAT3 MFI, CD8+ T cells, 100 nM (unstimulated 1288). 2260 MFI

I have this binder here, DR392(DR229-DR236) (bispecific antibody) QVQLQESGGGLVQPGGSLRLSCTASGFSFSSYPMTWARQAPGKGLEWVSTIASDGGSTAYAASVEGRFTISRDNAKSTLYLQLNSLKTEDTAMYYCTKGYGDGTPAPGQGTQVTVSSGGGSQVQLQESGGGSVQAGGSLRLSCAASRFTYSSYCMGWFRQAPGKEREGVASIDSDGSTSYTDSVKGRFTISKDNAKNTLYLQMNSLKPEDTAMYYCALDLMSTVVPGFCGFLLSAGMDYWGKGTQVTVSSASHHHHHH , and I need its recorded pSTAT3 MFI, CD8+ T cells, 100 nM (unstimulated 1288). 2390 MFI
